Molecular target: Tyrosyl-tRNA synthetase, putative (Trypanosoma cruzi (strain CL Brener))
Sequence (whole entry): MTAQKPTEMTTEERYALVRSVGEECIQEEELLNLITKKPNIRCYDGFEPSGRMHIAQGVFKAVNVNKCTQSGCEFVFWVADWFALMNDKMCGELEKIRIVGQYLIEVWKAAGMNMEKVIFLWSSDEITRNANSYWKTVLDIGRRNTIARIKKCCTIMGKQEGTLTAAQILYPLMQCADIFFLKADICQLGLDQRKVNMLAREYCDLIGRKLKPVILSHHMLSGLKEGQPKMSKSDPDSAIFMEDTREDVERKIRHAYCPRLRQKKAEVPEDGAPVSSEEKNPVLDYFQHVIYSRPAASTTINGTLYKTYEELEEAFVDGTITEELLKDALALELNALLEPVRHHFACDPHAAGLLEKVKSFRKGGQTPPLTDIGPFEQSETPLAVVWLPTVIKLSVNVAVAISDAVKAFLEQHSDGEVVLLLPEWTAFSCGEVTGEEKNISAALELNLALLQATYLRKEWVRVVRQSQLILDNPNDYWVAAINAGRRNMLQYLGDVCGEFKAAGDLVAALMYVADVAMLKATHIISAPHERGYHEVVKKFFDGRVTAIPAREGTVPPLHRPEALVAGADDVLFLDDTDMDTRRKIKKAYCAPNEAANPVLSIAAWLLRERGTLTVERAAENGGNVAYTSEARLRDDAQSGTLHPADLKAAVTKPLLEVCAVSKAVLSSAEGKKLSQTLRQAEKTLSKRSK
Assay: Trypanosoma cruzi tyrosyl tRNA synthetase (TcYRS) SOP
Type: functional
Parameters: scale not given: direction of the effect not stated beside the values
Conditions: 30 µM
Give measured Percent Effect for each item. Keep answers brief.
Answer with a number only, understood to be in %.

Query: # lookup: Percent Effect of COc1ccc(CNC(=O)NC2CCC(O)CC2)c(C(F)(F)F)c1 (stereo unspecified)
Reply: 2.56

Query: I'd like to know its Percent Effect. The compound in question is CCc1nccn1C1CCCN(C(=O)c2cn3c(C)cccc3n2)C1 (stereo unspecified)
Reply: 15.6

Query: # Percent Effect lookup, item Cc1cc(CN(C)C(=O)NC2CCN(Cc3ccccc3)C2)no1 (stereo unspecified)
Reply: 21.9

Query: // query Percent Effect value for entry COc1cccc2c1ccn2CC(=O)N[C@@H](CCSC)C(=O)O
Reply: -30.8

Query: Can you look up the measured Percent Effect of O=C(c1ccc(F)cc1F)N1CC[C@H](O)[C@@H](N2CCOCC2)CC1 for me?
Reply: 7.5

Query: For Cc1cnn(CC2CCCCN2CCCS(N)(=O)=O)c1 (stereo unspecified) , what is its reported Percent Effect?
Reply: -2.56

Query: Could you share which Percent Effect value was measured for COc1ccc(C)cc1CN1CCCC1Cn1nc(C)nc1C (stereo unspecified) ?
Reply: 12.7

Query: What value of measured Percent Effect is listed for CN1CCN(C(=O)c2nc3c(o2)CN(C(=O)c2cccnc2)C3)CC1 ?
Reply: 8.64

Query: I would be grateful if you could share the reported Percent Effect for Cc1ncc2c(n1)CCN(Cc1nc3ccccc3o1)C2 .
Reply: 25.6

Query: Which value of Percent Effect has been reported for COCC1CN(C(=O)COc2ccccc2)Cc2cn(C)nc21 (stereo unspecified) in the records?
Reply: -1.28

Query: Consider the compound shown here: CC(C)(C)OC(=O)NC(C)(C)c1noc(CN2CCCCC2)n1 What is its recorded Percent Effect?
Reply: 8.64
